Please go through the items and note down their binding signal.
biological target: TDP-43 hN12 WT (human, UniProt Q13148 1-259); assay: filter binding; 2 uM protein; Filter binding: 50 mM phosphate, 50 mM imidazole, 10 mM beta-mercaptoethanol, pH 7.5, room temperature, 30 min, 10 pmol 32P-labelled nucleic acid; settings: protein: recombinant; chain copies: 2
Sequence (Q13148 1-259): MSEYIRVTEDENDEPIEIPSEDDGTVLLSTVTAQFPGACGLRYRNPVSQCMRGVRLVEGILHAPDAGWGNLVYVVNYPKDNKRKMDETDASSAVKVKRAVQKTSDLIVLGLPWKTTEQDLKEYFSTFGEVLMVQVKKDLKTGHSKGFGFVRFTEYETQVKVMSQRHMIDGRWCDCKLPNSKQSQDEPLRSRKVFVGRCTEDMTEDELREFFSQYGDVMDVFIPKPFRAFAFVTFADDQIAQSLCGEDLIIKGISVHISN
Quick note: give the figure in % bound, leave out the unit.

Returns the measured binding signal for the input binder. Input: AGAGUGAAAAUG (ssRNA) [PS1] 23.1

Look at this binder and give its reported binding signal. UGUGUGUGUGUG (ssRNA) [(UG)6 RNA] 67.9

binding signal for CGCGUGCCCCUG (ssRNA) [PS2] ? 6.2

Requested field: binding signal. Item: CACACACACACA (ssRNA) [(CA)6 RNA] 0.6

Values were extracted from paper PMC3985631.
